# Tested on: MDCK
# protocol_summary: Efflux ratio of permeability from basolateral to apical over apical to basolateral side in human MDR1 transfected MDCK cells at 5 uM after 120 mins by LC-MS/MS analysis
# Assay type: ADME, cell-based, Canis lupus familiaris
# assay_conditions: dog, 2 h
property: Ratio
Just the number.

Would you please look over these solved cases?
| compound_string | Ratio |
| --- | --- |
| O=C1NCCCC[C@H]1N(Cc1ccc2ncccc2c1)S(=O)(=O)c1ccc(Cl)cc1 | 1.8 |
| O=C1NCCCC[C@H]1N(Cc1ccc2nsnc2c1)S(=O)(=O)c1ccc(Cl)cc1 | 2 |

Exercise: Identify measured Ratio associated with O=C1NCCCC[C@H]1N(Cc1ccc2c(c1)OCCO2)S(=O)(=O)c1ccc(Cl)cc1
Key: 2.7

Exercise: Identify measured Ratio associated with O=C1NCCCC[C@H]1N(Cc1ccc2snnc2c1)S(=O)(=O)c1ccc(Cl)cc1
Key: 2

Exercise: Identify measured Ratio associated with O=C1NCCCC[C@H]1N(Cc1ccc2nccnc2c1)S(=O)(=O)c1ccc(Cl)cc1
Key: 1.8

Origin of the recorded values: ChEMBL document CHEMBL1777728
